# System: Mucor mucedo (ATCC 7941)
Experimental endpoint: MIC (µg/mL)
// return numeric value only (unit: µg/mL, not printed)

// query Check Mucor mucedo (ATCC 7941) data and give MIC for CCCCCCCCCCCOC(=O)C[C@H](C[N+](C)(C)C)OC(=O)C(C)C [ST 712] .
// result 50

Continuing:
// query Look up and report measured MIC (Mucor mucedo (ATCC 7941)) for the following molecule: CCCCCCCCCCCCCOC(=O)C[C@H](C[N+](C)(C)C)OC(=O)CCCCC [ST 1052]
// result 6.25

// query Param request: MIC | system Mucor mucedo (ATCC 7941) | item CCCCCCCCCCCCCOC(=O)C[C@H](C[N+](C)(C)C)OC(=O)CCCCCCC [ST 1053]
// result 12.5

// query State MIC (Mucor mucedo (ATCC 7941)) of CCCCCCCCCCCCCOC(=O)C[C@H](C[N+](C)(C)C)OC(=O)CC(C)C [ST 1033] .
// result 6.25

// query Please look at CCCCCCCCCCCOC(=O)C[C@H](C[N+](C)(C)C)OC(=O)CCC(C)C [ST 1034] and tell me its recorded MIC on Mucor mucedo (ATCC 7941).
// result 12.5

====

The compounds listed here are annotated with their MIC.
# Tested on: Cryptococcus neoformans (ISS 1)
# Assay notes: MIC for yeast and yeast-like strains
# Format: cell-based
# Reported conditions: 48 hours, 35° C., read-out: Minimal Inhibitory Concentration (MIC)
// units = µg/mL; emit number, no label

Look over these answered cases.
// query Provide MIC value for the following compound: `CCCCCCCCCCCCCOC(=O)C[C@H](C[N+](C)(C)C)OC(=O)CC(C)C`
// result 1.56

// query State, in one line, measured MIC of `CCCCCCCCCCCCOC(=O)C[C@H](C[N+](C)(C)C)OC(=O)CC(C)C`
// result 1.56

// query Using known records, supply MIC for `CCCCCCCCCCCOC(=O)C[C@H](C[N+](C)(C)C)OC(=O)CC(C)C`
// result 3.12

// query Name the recorded MIC of the item `CCCCCCCCCCCCOC(=O)C[C@H](C[N+](C)(C)C)OC(=O)C(C)C` in your answer.
// result 3.12

// query Write down MIC measured for item `CCCCCCCCCCCOC(=O)C[C@H](C[N+](C)(C)C)OC(=O)CCCCCC`
// result 3.12

New cases:
// query Please report the measured MIC for `CCCCCCCCCCCOC(=O)C[C@H](C[N+](C)(C)C)OC(=O)CCC(C)C`
// result 3.12

// query Indicate its recorded MIC; the compound in question is `CCCCCCCCCCCCCCCCOC(=O)C[C@H](C[N+](C)(C)C)OC(=O)CC(C)C`
// result 3.12

====

# Tested on: Aspergillus fumigatus (2/A)
# Assay notes: MIC for filamentous fungi
# Format: cell-based
# Reported conditions: read-out: Minimal Inhibitory Concentration (MIC)
Experimental endpoint: MIC (µg/mL)
Provide only the numeric value, understood in µg/mL.

// query Write MIC of `CCCCCCCCCCCOC(=O)C[C@H](C[N+](C)(C)C)OC(=O)CCC(C)C` ; system used: Aspergillus fumigatus (2/A)
// result 3.12

// query Recall the reported MIC of `CCCCCCCCCCCOC(=O)C[C@H](C[N+](C)(C)C)OC(=O)CC(C)C` when tested on Aspergillus fumigatus (2/A).
// result 12.5

// query Fill in: MIC on Aspergillus fumigatus (2/A), entry `CCCCCCCCCCCOC(=O)C[C@H](C[N+](C)(C)C)OC(=O)CCCCCC`
// result 6.25

// query Tell me its MIC on Aspergillus fumigatus (2/A): `CCCCCCCCCCCCCCCCOC(=O)C[C@H](C[N+](C)(C)C)OC(=O)CC(C)C`
// result 6.25

// query Name the value of MIC reported for `CCCCCCCCCCCCCOC(=O)C[C@H](C[N+](C)(C)C)OC(=O)CC(C)C` when tested on Aspergillus fumigatus (2/A).
// result 3.12

New cases:
// query Look up and report MIC, with Aspergillus fumigatus (2/A) as system, for `CCCCCCCCCCCCOC(=O)C[C@H](C[N+](C)(C)C)OC(=O)CC(C)C`
// result 6.25

// query Param request: MIC | system Aspergillus fumigatus (2/A) | item `CCCCCCCCCCCCOC(=O)C[C@H](C[N+](C)(C)C)OC(=O)C(C)C`
// result 12.5

// query # lookup: Aspergillus fumigatus (2/A) MIC, key = `CCCCCCCCCCCOC(=O)C[C@H](C[N+](C)(C)C)OC(=O)C(C)C`
// result 25

====

MIC data for Aspergillus fumigatus (ATCC 28212) follow.
Numeric only. Scale: µg/mL

Known MIC results, listed for orientation:
// query Name the value of MIC reported for `CCCCCCCCCCCCCCCCOC(=O)C[C@H](C[N+](C)(C)C)OC(=O)CC(C)C` when tested on Aspergillus fumigatus (ATCC 28212).
// result 6.25

// query Enter recorded MIC with Aspergillus fumigatus (ATCC 28212) for CCCCCCCCCCCCCOC(=O)C[C@H](C[N+](C)(C)C)OC(=O)C(C)CCCC (some centres unmarked) here.
// result 3.12

// query Print Aspergillus fumigatus (ATCC 28212) MIC for `CCCCCCCCCCCCCOC(=O)C[C@H](C[N+](C)(C)C)OC(=O)CC(C)C` .
// result 3.12

Then this compound:
// query With Aspergillus fumigatus (ATCC 28212) as the test system, provide measured MIC for this compound: `CCCCCCCCCCCOC(=O)C[C@H](C[N+](C)(C)C)OC(=O)CCCCCCC`
// result 3.12

The measured values listed here are drawn from patent US5525627A.
